- Test System: Serine/threonine-protein kinase Nek2 (Homo sapiens, UniProt P51955)
- Sequence (P51955 whole entry): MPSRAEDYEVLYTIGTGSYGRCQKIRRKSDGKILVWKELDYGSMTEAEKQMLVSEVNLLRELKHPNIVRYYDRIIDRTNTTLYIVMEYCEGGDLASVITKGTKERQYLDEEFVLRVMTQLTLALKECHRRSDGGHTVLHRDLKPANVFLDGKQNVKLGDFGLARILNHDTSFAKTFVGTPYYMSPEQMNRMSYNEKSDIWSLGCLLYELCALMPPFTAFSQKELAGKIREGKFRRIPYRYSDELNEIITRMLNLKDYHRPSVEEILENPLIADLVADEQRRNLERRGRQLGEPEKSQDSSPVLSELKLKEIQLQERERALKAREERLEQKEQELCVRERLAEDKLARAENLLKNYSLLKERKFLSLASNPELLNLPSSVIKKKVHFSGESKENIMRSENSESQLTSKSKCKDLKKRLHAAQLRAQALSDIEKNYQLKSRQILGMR
- Experimental Details: Inhibition of human recombinant Nek2 in presence of 50 uM ATP by ADP-Glo kinase assay
Observed Property: IC50
Note: a bare number is incomplete; add the unit.

Field: example entries. Status: answers known.
CN1CCC2(CC1)NCC(=O)N2 :: 58.1 µM
CS(=O)(=O)N1CCC2(CC1)NCC(=O)N2 :: 32.1 µM
O=C1NC2(CCN(C(=O)c3ccccc3)CC2)N=C1c1ccc(Br)cc1 :: 9.2 µM
O=C1NC2(CCN(S(=O)(=O)c3cccs3)CC2)N=C1c1ccc(Br)cc1 :: 5.6 µM
CC(C)(C)c1ccc(S(=O)(=O)N2CCC3(CC2)N=C(c2ccc(Br)cc2)C(=O)N3)cc1 :: 5 µM
Cc1ccc(S(=O)(=O)N2CCC3(CC2)N=C(c2ccc(Br)cc2)C(=O)N3)cc1C :: 12.3 µM

Lookup result for CCOC(=O)c1ccc(S(=O)(=O)N2CCC3(CC2)N=C(c2ccc(Br)cc2)C(=O)N3)cc1 ; measured IC50: 14.6 µM

Lookup result for Cc1ccc(C2=NC3(CCN(S(C)(=O)=O)CC3)NC2=O)cc1C ; measured IC50: 3.2 µM

Lookup result for O=C1NC2(CCN(S(=O)(=O)c3ccccc3)CC2)N=C1c1ccc(Cl)cc1 ; measured IC50: 6 µM

Lookup result for Cc1cc(C)c(S(=O)(=O)N2CCC3(CC2)N=C(c2ccc(Br)cc2)C(=O)N3)c(C)c1 ; measured IC50: 9.8 µM
